The values you see were collected from the supplement of paper PMC10567573.

Listed next: entries and their corresponding protein stability index.
B1: INTS3 (parent)
chain: YPPLEGHVRQGVFSSLNHIVEKRV

Variants of: B1
PROCEDURE TEXT: protein stability index of a GFP-peptide fusion (GPS, HEK-293T) (PSI 1-6); higher = more stable;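 further: lentivirally expressed fusions sorted by FACS into six bins by GFP to DsRed ratio, PSI derived from sequencing read proportions per bin multiplied by bin number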
EXPERIMENTAL CONDITIONS: c terminus: a fixed tail appended
Write the value as a bare number.

See these solved cases before continuing.
[[record]]
mutation = "P2E"
measurement_name = "protein stability index"
measured_value = 3.54

[[record]]
mutation = "P2I"
measurement_name = "protein stability index"
measured_value = 1.55

[[record]]
mutation = "S14L"
measurement_name = "protein stability index"
measured_value = 1.73

[[record]]
mutation = "S15L"
measurement_name = "protein stability index"
measured_value = 1.86


// switching to the query variant
INPUT: Which protein stability index value belongs to F13I ?
OUTPUT: 3.6
